target: T1, alpha-conotoxin MI (CTX-MI) (Conus magus, UniProt P01521 1-14, disulfide (positions not given here); not fully specified; also: two disulfides as in P01521); assay: BLI; details: protein: commercial; tags: none; label: biotin; remaining predicted GQ core A
T1 chain: GRCCHPACGKNYSC-NH2
Where no end group is shown, it is not given here.
Observed Property: Kd
Could you kindly put the unit after your number?

In: Quick check: Kd of TTTGGCCATGGCCAACGGTAAAAAGGCTCAAAACCCTTTT (ssDNA) [M2] ?
Out: 741 nM
